Protocol Details: Cmax in mouse serum
Type: ADME, organism-based
Measurement Kind: Cmax (ng/mL)
# output: bare number, implied unit ng/mL

Request: Using the record for C[C@@H](c1ncncc1F)[C@](O)(Cn1cncn1)c1ccc(F)cc1F [VORICONAZOLE] , report its Cmax.
Response: 2320

----------
Protocol Details: Cmax in mouse lung
Format: ADME, organism-based
Measurement Kind: Cmax (ng/g)
# output: bare number, implied unit ng/g

Request: Using the record for `C[C@@H](c1ncncc1F)[C@](O)(Cn1cncn1)c1ccc(F)cc1F` , report its Cmax.
Response: 6730
